Entries and their protein stability index
B1: TMEM106C (parent)
chain: FTGRDSITCLTCQGTGYIPTEQVN

Variants of: B1
Experiment: protein stability index of a GFP-peptide fusion (GPS, HEK-293T) (PSI 1-6); higher = more stable;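 also: lentivirally expressed fusions sorted by FACS into six bins by GFP to DsRed ratio, PSI derived from sequencing read proportions per bin multiplied by bin number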
Settings: c terminus: a fixed tail appended
Number, no unit, nothing else.

Some variants with recorded protein stability index:
- sequence: "FTGRDSITCLTCQGTGYIPTEQVS [N24S]"
  test_value: 2.27
- sequence: "FTWRDSITCLTCQGTGYIPTEQVN [G3W]"
  test_value: 1.48
- sequence: "FTGRDSITCLTCQGTGYAPTEQVN [I18A]"
  test_value: 1.93
- sequence: "FTGRDSIPCLTCQGTGYIPTEQVN [T8P]"
  test_value: 1.9
- sequence: "FTGRDKITCLTCQGTGYIPTEQVN [S6K]"
  test_value: 2.34

Prompt: Identify measured protein stability index corresponding to FTGRDSITCLTCQGTGQIPTEQVN [Y17Q]
Response: 1.79

Prompt: Identify measured protein stability index corresponding to FTGRDSITCLTCQGTGYIPYEQVN [T20Y]
Response: 2.17

Prompt: State its protein stability index for this variant: FTGRDSITCLTCQGTGYRPTEQVN [I18R]
Response: 2.57

Prompt: Recall and state the measured protein stability index for FTGRDSITCLTRQGTGYIPTEQVN [C12R] .
Response: 1.85

Prompt: Entry FTGRDSITILTCQGTGYIPTEQVN [C9I] needs its protein stability index filled in; supply it.
Response: 3.25

Prompt: Quick one: give measured protein stability index for FTGRDSITCLTCQGTGYIPREQVN [T20R]
Response: 2.27

Prompt: Indicate the recorded protein stability index value for this variant: STGRDSITCLTCQGTGYIPTEQVN [F1S]
Response: 4.33

Prompt: Given the variant FTGRDSYTCLTCQGTGYIPTEQVN [I7Y] , write its reported protein stability index.
Response: 2.68

Prompt: Could you please provide reported protein stability index for FTGRDSITCLTCQGTGYISTEQVN [P19S] ? Thanks!
Response: 2.23

Prompt: Identify the reported protein stability index for the following entry. KTGRDSITCLTCQGTGYIPTEQVN [F1K]
Response: 4.29

Prompt: Identify the reported protein stability index for the following entry. FTGRDSITCLTCQATGYIPTEQVN [G14A]
Response: 1.5

Prompt: Tell me protein stability index reported for FTGRDSITCLICQGTGYIPTEQVN [T11I]
Response: 1.52

Prompt: Respond only with protein stability index recorded for FTGRDSITCLTCQGTGYIPCEQVN [T20C]
Response: 1.83

Prompt: Identify measured protein stability index associated with FTGRDSIECLTCQGTGYIPTEQVN [T8E]
Response: 1.84

Prompt: Determine from records and report protein stability index for FTGRDSITCLTCQGNGYIPTEQVN [T15N]
Response: 1.62

Prompt: Please look at this variant and report its protein stability index: FTGRDSITCITCQGTGYIPTEQVN [L10I]
Response: 1.98

Values compiled from the supplement of paper PMC10567573.
